Each entry below lists one item and its recorded growth inhibition value.
test details: NCI Yeast Anticancer Drug Screen. Data for the mec2-1 strain (AID 157)
test context: S. cerevisiae mec2-1 strain, at 50.0 µM, hits give high values
Compounds without any hit were thinned out: in the full panel of roughly 79,000, 15% have a hit.
Please state the figure in %; there is no need to write the unit.

- compound: "CC1(C)Cc2oc(=Nc3ccccc3)n(-c3ccccc3)c(=O)c2C1"
  growth inhibition / %: 2.15
- compound: "O=c1cc(-c2ccccc2)oc2c1ccc1c(O)cccc12"
  growth inhibition / %: -2.5
- compound: "COc1ccccc1NC(=O)Cc1nc(=O)[nH]c(=O)[nH]1"
  growth inhibition / %: -37.7
- compound: "Cc1cccc2c1Oc1ccccc1C2NC(=O)OCCCl (centres undefined)"
  growth inhibition / %: 13.1
- compound: "CCCCCC(N)C(=O)O (centres undefined)"
  growth inhibition / %: 6
- compound: "CC(=O)Nc1cccc(F)c1"
  growth inhibition / %: 1.1

Data request, read-out growth inhibition, for O=C(N/N=C/c1cccnc1)C(O)C(O)C(O)C(O)CO (centres undefined)
8.9

// lookup growth inhibition for CC1(C)C2CCC1(C)C(NC(N)=O)C2 (centres undefined)
6.45

Quick one: growth inhibition for Cc1nn2c(c1C#N)NNc1c-2sc(=N)nnc1=O ?
0.5
